The measured values listed here are drawn from the supplement of paper PMC4862054.

- Tested on: MCF-10A
- MEASUREMENT_PROTOCOL: normalised response (% of control), CellTiter-Glo; higher = more viable cells (100 = DMSO, 0 = benzethonium chloride kill control)
- CONDITION_SUMMARY: incubation time: 72 h
REPORTED_ENDPOINT: normalised response (%)

- O=C1CN2Cc3c(ccc(Cl)c3Cl)N=C2N1 [Anagrelide] (1 nM): 94
- O=NN(CCCl)C(=O)NCCCl [Carmustine] (10 nM): 96.6
- Cn1cnc2c(F)c(Nc3ccc(Br)cc3Cl)c(C(=O)NOCCO)cc21 [Selumetinib] (1000 nM): 37.6
- C[C@]1(O)C[C@@H](c2nc(-c3ccc4ccc(-c5ccccc5)nc4c3)c3c(N)nccn32)C1 [Linsitinib] (1 nM): 89.5
- COc1cc(F)c(F)c(Nc2ccc(I)cc2F)c1NS(=O)(=O)C1(C[C@H](O)CO)CC1 [Refametinib] (1000 nM): 28.3
- COc1cc2c(cc1O)CC[C@@H]1[C@@H]2CC[C@]2(C)[C@@H](O)CC[C@@H]12 [2-methoxyestradiol] (1000 nM): 96
- Nc1ncn([C@@H]2O[C@H](CO)[C@@H](O)[C@H]2O)c(=O)n1 [Azacitidine] (1000 nM): 110
- C[C@]12CC[C@@H]3c4ccc(OC(=O)N(CCCl)CCCl)cc4CC[C@H]3[C@@H]1CC[C@@H]2O [Estramustine] (10 nM): 91.1
